# Test system: bladder
# testMethodNotes: animal or person
# experimentalConditions: Rattus norvegicus, po, 1 h, read-out: Contraction interval
measuredEndpoint: response vs control in vivo at 1 mg/kg (%)
Give the value in % but do not write % after it.

Solved entries:
compound	system	response vs control in vivo at 1 mg/kg [%]
CC(O)(C(=O)Nc1cccc2c1C(=O)c1ccoc1CS2(=O)=O)C(F)(F)F (stereo not drawn)	bladder	116
CC(O)(C(=O)Nc1ccc2c(c1)C(=O)c1sccc1CS2(=O)=O)C(F)(F)F (stereo not drawn)	bladder	129

Req: Give the measured response vs control in vivo at 1 mg/kg for CC(C)(O)C(=O)Nc1cccc2c1C(=O)c1sccc1CS2(=O)=O
Resp: 118
